- experimentalDetails: Blood clearance in Wistar rat at 0.3 mg/kg, iv administered as bolus dose by LC-MS analysis
- Format: ADME, organism-based
Could you please report measured clearance for the items listed next?
Response body: numeric value in mL/min/kg, unit text excluded.

*Q* Returns the measured clearance for the input compound. Input: CC[C@@H](NC(=O)c1cn(-c2c(F)cc(F)cc2F)c2nc(N3C[C@@H](O)CC3=O)ccc2c1=O)C(F)(F)F
*A* 56.7

*Q* Returns the measured clearance for the input compound. Input: CC[C@@H](NC(=O)c1cn(-c2c(F)cccc2F)c2nc(N3C[C@@H](O)CC3=O)ccc2c1=O)C(F)(F)F
*A* 21.7

*Q* Returns the measured clearance for the input compound. Input: CC[C@@H](NC(=O)c1cn(-c2ccc(F)cc2F)c2nc(N3C[C@@H](O)CC3=O)ccc2c1=O)C(F)(F)F
*A* 26.7

*Q* Returns the measured clearance for the input compound. Input: CCC(NC(=O)c1cn(-c2c(F)cc(F)cc2F)c2nc(N3C[C@@H](O)[C@H](O)C3)ccc2c1=O)C(F)(F)C(F)(F)F (single isomer, unassigned; diastereomer 1)
*A* 8.33

*Q* Returns the measured clearance for the input compound. Input: CC[C@H](NC(=O)c1cn(-c2c(F)cc(F)cc2F)c2nc(N3C[C@@H](O)[C@H](O)C3)ccc2c1=O)C(F)(F)F
*A* 25

*Q* Returns the measured clearance for the input compound. Input: CCC(NC(=O)c1cn(-c2c(F)cc(F)cc2F)c2nc(N3C[C@@H](O)[C@H](O)C3)c(F)cc2c1=O)C(F)(F)C(F)(F)F (single isomer, unassigned; diastereomer 1)
*A* 23.3

*Q* Returns the measured clearance for the input compound. Input: CC[C@H](NC(=O)c1cn(-c2c(F)cc(F)cc2F)c2nc(N3C[C@@H](O)CC3=O)ccc2c1=O)C(F)(F)F
*A* 20

*Q* Returns the measured clearance for the input compound. Input: CC(NC(=O)c1cn(-c2c(F)cc(F)cc2F)c2nc(N3C[C@@H](O)[C@H](O)C3)ccc2c1=O)C(F)(F)C(F)(F)F (single isomer, unassigned; diastereomer 1)
*A* 11.7

*Q* Returns the measured clearance for the input compound. Input: O=C(N[C@@H](C1CC1)C(F)(F)F)c1cn(-c2c(F)cc(F)cc2F)c2nc(N3C[C@@H](O)[C@H](O)C3)ccc2c1=O
*A* 15

====

- experimentalDetails: Volume of distribution at steady state in Wistar rat at 0.3 mg/kg, iv administered as bolus dose by LC-MS analysis
- Type: ADME, organism-based
- reportedConditions: in vivo, read-out: Vdss
Could you please report measured Vd for the items listed next?
Response body: numeric value in L/kg, unit text excluded.

*Q* Returns the measured Vd for the input molecule. Input: CC[C@H](NC(=O)c1cn(-c2c(F)cc(F)cc2F)c2nc(N3C[C@@H](O)[C@H](O)C3)ccc2c1=O)C(F)(F)F
*A* 3.5

*Q* Returns the measured Vd for the input molecule. Input: CC[C@H](NC(=O)c1cn(-c2c(F)cc(F)cc2F)c2nc(N3C[C@@H](O)CC3=O)ccc2c1=O)C(F)(F)F
*A* 3.5

*Q* Returns the measured Vd for the input molecule. Input: O=C(N[C@@H](C1CC1)C(F)(F)F)c1cn(-c2c(F)cc(F)cc2F)c2nc(N3C[C@@H](O)[C@H](O)C3)ccc2c1=O
*A* 3.7

*Q* Returns the measured Vd for the input molecule. Input: CCC(NC(=O)c1cn(-c2c(F)cc(F)cc2F)c2nc(N3C[C@@H](O)[C@H](O)C3)c(F)cc2c1=O)C(F)(F)C(F)(F)F (single isomer, unassigned; diastereomer 1)
*A* 3

*Q* Returns the measured Vd for the input molecule. Input: CCC(NC(=O)c1cn(-c2c(F)cc(F)cc2F)c2nc(N3C[C@@H](O)[C@H](O)C3)ccc2c1=O)C(F)(F)C(F)(F)F (single isomer, unassigned; diastereomer 1)
*A* 1.2

*Q* Returns the measured Vd for the input molecule. Input: CC(NC(=O)c1cn(-c2c(F)cc(F)cc2F)c2nc(N3C[C@@H](O)[C@H](O)C3)ccc2c1=O)C(F)(F)C(F)(F)F (single isomer, unassigned; diastereomer 1)
*A* 2.5

*Q* Returns the measured Vd for the input molecule. Input: CC[C@@H](NC(=O)c1cn(-c2ccc(F)cc2F)c2nc(N3C[C@@H](O)CC3=O)ccc2c1=O)C(F)(F)F
*A* 0.8

*Q* Returns the measured Vd for the input molecule. Input: CC[C@@H](NC(=O)c1cn(-c2c(F)cccc2F)c2nc(N3C[C@@H](O)CC3=O)ccc2c1=O)C(F)(F)F
*A* 1.7

*Q* Returns the measured Vd for the input molecule. Input: CC[C@@H](NC(=O)c1cn(-c2c(F)cc(F)cc2F)c2nc(N3C[C@@H](O)CC3=O)ccc2c1=O)C(F)(F)F
*A* 2.3

====

Could you please report measured fraction unbound for the items listed next?
- experimentalDetails: Fraction unbound in rat plasma
- Assay type: ADME, cell-free

*Q* Returns the measured fraction unbound for the input compound. Input: CC[C@@H](NC(=O)c1cn(-c2ccc(F)cc2F)c2nc(N3C[C@@H](O)CC3=O)ccc2c1=O)C(F)(F)F
*A* 0.008

*Q* Returns the measured fraction unbound for the input compound. Input: CCC(NC(=O)c1cn(-c2c(F)cc(F)cc2F)c2nc(N3C[C@@H](O)[C@H](O)C3)ccc2c1=O)C(F)(F)C(F)(F)F (single isomer, unassigned; diastereomer 1)
*A* 0.013

*Q* Returns the measured fraction unbound for the input compound. Input: CC[C@@H](NC(=O)c1cn(-c2c(F)cccc2F)c2nc(N3C[C@@H](O)CC3=O)ccc2c1=O)C(F)(F)F
*A* 0.009

*Q* Returns the measured fraction unbound for the input compound. Input: O=C(N[C@@H](C1CC1)C(F)(F)F)c1cn(-c2c(F)cc(F)cc2F)c2nc(N3C[C@@H](O)[C@H](O)C3)ccc2c1=O
*A* 0.025

*Q* Returns the measured fraction unbound for the input compound. Input: CCC(NC(=O)c1cn(-c2c(F)cc(F)cc2F)c2nc(N3C[C@@H](O)[C@H](O)C3)c(F)cc2c1=O)C(F)(F)C(F)(F)F (single isomer, unassigned; diastereomer 1)
*A* 0.006

*Q* Returns the measured fraction unbound for the input compound. Input: CC[C@H](NC(=O)c1cn(-c2c(F)cc(F)cc2F)c2nc(N3C[C@@H](O)CC3=O)ccc2c1=O)C(F)(F)F
*A* 0.02

====

- experimentalDetails: Intrinsic clearance in rat hepatocytes measured for 90 mins by LC-MS/MS analysis
- Type: ADME, cell-based, Hepatocyte
- reportedConditions: read-out: CLH (converted)
Decide using predicted hepatic blood clearance at […]: a value greater than or equal to 2 L/h/kg is T, a smaller one is F.

*Q* Hi team, for O=C(NC12CC3CC(CC(C3)C1)C2)c1cn(-c2ccc(F)cc2F)c2nc(N3CCCC3)ccc2c1=O , is the recorded predicted hepatic blood clearance at […] at or above 2 L/h/kg?
*A* T

*Q* Hi team, for O=C(NC12CC3CC(CC(C3)C1)C2)c1cn(-c2ccc(F)cc2F)c2nc(N3CCCC3=O)ccc2c1=O , is the recorded predicted hepatic blood clearance at […] at or above 2 L/h/kg?
*A* T

*Q* Hi team, for CC(NC(=O)c1cn(-c2c(F)cc(F)cc2F)c2nc(N3C[C@@H](O)[C@H](O)C3)ccc2c1=O)C(F)(F)C(F)(F)F (single isomer, unassigned; diastereomer 1) , is the recorded predicted hepatic blood clearance at […] at or above 2 L/h/kg?
*A* F

*Q* Hi team, for CC[C@@H](NC(=O)c1cn(-c2c(F)cc(F)cc2F)c2nc(N3C[C@@H](O)CC3=O)ccc2c1=O)C(F)(F)F , is the recorded predicted hepatic blood clearance at […] at or above 2 L/h/kg?
*A* F

*Q* Hi team, for CC[C@@H](NC(=O)c1cn(-c2c(Cl)cccc2Cl)c2nc(N3C[C@@H](O)CC3=O)ccc2c1=O)C(F)(F)F , is the recorded predicted hepatic blood clearance at […] at or above 2 L/h/kg?
*A* T

*Q* Hi team, for CCC(NC(=O)c1cn(-c2c(F)cc(F)cc2F)c2nc(N3C[C@@H](O)[C@H](O)C3)c(F)cc2c1=O)C(F)(F)C(F)(F)F (single isomer, unassigned; diastereomer 1) , is the recorded predicted hepatic blood clearance at […] at or above 2 L/h/kg?
*A* F

*Q* Hi team, for CC[C@H](NC(=O)c1cn(-c2c(F)cc(F)cc2F)c2nc(N3C[C@@H](O)CC3=O)ccc2c1=O)C(F)(F)F , is the recorded predicted hepatic blood clearance at […] at or above 2 L/h/kg?
*A* F

*Q* Hi team, for CN(C)c1ccc2c(=O)c(C(=O)NC34CC5CC(CC(C5)C3)C4)cn(-c3ccc(F)cc3F)c2n1 , is the recorded predicted hepatic blood clearance at […] at or above 2 L/h/kg?
*A* T

*Q* Hi team, for CC[C@@H](NC(=O)c1cn(-c2ccccc2Cl)c2nc(N3C[C@@H](O)CC3=O)ccc2c1=O)C(F)(F)F , is the recorded predicted hepatic blood clearance at […] at or above 2 L/h/kg?
*A* T
